This collection of values is drawn from ChEMBL document CHEMBL3822384.

Tested on: AHR (Homo sapiens)
Sequence (P35869 whole entry): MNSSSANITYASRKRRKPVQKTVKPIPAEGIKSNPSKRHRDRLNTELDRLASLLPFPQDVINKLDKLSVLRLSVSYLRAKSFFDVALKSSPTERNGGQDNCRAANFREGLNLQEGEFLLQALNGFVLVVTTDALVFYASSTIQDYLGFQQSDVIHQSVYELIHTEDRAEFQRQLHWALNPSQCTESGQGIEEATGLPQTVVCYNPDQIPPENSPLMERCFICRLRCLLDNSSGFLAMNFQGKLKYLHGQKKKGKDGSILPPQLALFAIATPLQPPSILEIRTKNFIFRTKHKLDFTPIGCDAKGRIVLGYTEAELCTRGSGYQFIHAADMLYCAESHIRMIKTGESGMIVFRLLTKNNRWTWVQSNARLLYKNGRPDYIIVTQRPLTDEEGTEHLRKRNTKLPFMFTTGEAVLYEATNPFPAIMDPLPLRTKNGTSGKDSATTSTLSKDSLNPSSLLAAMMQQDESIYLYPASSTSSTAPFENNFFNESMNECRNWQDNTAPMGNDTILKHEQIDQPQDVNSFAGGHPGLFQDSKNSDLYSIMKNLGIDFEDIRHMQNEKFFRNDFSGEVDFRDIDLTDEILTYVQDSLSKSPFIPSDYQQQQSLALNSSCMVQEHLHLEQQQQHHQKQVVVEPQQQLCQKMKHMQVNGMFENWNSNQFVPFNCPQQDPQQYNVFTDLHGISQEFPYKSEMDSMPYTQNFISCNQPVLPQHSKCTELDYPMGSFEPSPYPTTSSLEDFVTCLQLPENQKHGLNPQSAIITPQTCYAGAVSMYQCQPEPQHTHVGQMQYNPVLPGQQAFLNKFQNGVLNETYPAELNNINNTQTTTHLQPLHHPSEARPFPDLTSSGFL
Protocol details: Agonist activity at AHR expressed in human HepG2 cells after 24 hrs by pXRE-luciferase reporter gene assay
Type: cell-based
Experimental context: human, HepG2 cells expressing AHR; read-out: Imax
Exercise: for every item that follows, state its recorded Emax at 24 h.
Give bare numbers, in %.

Example entries and their recorded answers appear below.
In [3]: df
Out[3]:
                                   molecule  number
0  Cc1ccc2cc3c(ccc4ccccc43)c3c2c1CC3 [3-METHYLCHOLANTHRENE]     119
1           COc1cccc(-c2nc(OC)c3ccccc3n2)c1     290
2           COc1cccc(-c2nc(SC)c3ccccc3n2)c1     219

List the reported Emax at 24 h of each molecule below.
1. COc1cccc(-c2nc3ccccc3c(=S)[nH]2)c1
2. Clc1cc2c(cc1Cl)Oc1cc(Cl)c(Cl)cc1O2 [2,3,7,8-TETRACHLORODIBENZO-P-DIOXIN]

## Result
266
59

----------
Tested on: Cytochrome P450 2C9 (Homo sapiens)
Sequence (P11712 whole entry): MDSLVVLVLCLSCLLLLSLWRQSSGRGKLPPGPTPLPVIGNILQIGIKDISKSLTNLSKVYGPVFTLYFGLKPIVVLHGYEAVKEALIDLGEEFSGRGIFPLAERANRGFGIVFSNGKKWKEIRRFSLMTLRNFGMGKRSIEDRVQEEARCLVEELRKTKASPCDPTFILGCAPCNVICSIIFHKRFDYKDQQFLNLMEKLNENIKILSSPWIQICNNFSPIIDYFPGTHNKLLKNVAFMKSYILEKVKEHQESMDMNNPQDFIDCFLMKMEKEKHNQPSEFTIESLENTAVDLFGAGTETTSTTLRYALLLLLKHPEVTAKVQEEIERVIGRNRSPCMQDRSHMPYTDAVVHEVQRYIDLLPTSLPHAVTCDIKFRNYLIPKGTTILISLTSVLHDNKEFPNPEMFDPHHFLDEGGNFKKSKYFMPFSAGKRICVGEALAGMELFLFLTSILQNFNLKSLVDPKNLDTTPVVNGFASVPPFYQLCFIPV
Protocol details: Inhibition of recombinant human CYP2C9 by P450-Glo luminescence assay
Measurement type: IC50 (µM)
Answers are plain numbers, in µM.

Example entries and their recorded answers appear below.
                         given_smiles  measurement_type  number
0     COc1cccc(-c2nc(SC)c3ccccc3n2)c1              IC50    4.19
1  COc1cccc(-c2nc3ccccc3c(=S)[nH]2)c1              IC50      11

## Task Please look up its IC50: COc1cccc(-c2nc(OC)c3ccccc3n2)c1
## Result 5.03

----------
Tested on: Cytochrome P450 2B6 (Homo sapiens, UniProt P20813)
Sequence (P20813 whole entry): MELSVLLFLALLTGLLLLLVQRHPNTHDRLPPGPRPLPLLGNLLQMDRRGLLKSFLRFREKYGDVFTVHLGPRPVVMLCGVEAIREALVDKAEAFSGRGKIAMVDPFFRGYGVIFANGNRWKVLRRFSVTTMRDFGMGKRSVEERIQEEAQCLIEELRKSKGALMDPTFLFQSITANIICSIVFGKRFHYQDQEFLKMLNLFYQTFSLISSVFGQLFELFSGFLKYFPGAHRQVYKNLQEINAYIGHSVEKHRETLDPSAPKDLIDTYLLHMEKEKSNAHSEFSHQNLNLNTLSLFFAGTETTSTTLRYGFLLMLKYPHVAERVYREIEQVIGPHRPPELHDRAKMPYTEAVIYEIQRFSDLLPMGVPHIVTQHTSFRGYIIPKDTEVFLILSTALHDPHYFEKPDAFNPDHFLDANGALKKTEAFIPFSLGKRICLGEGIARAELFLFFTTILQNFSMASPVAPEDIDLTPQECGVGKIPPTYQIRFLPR
Protocol details: Inhibition of recombinant human CYP2B6 by P450-Glo luminescence assay
Measurement type: pIC50
Give bare numbers, as −log10 of the molar value.

List the reported pIC50 of each compound below.
1. COc1cccc(-c2nc(SC)c3ccccc3n2)c1
2. COc1cccc(-c2nc(OC)c3ccccc3n2)c1
3. COc1cccc(-c2nc3ccccc3c(=S)[nH]2)c1

## Result
1. 4.50
2. 4.44
3. 4.45

----------
Tested on: UniProt Q14994
Sequence (Q14994 whole entry, the tested form may be a part): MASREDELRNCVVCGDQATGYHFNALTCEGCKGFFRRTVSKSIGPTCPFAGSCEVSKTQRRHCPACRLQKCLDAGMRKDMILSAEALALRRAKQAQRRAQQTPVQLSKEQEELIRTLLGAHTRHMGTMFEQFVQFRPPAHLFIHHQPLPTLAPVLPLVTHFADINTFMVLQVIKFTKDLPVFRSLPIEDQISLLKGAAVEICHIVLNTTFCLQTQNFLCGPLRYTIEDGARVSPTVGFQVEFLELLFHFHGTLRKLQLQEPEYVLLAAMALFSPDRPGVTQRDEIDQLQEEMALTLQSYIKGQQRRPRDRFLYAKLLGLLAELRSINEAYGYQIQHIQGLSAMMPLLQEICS
Protocol details: Agonist activity at CAR LBD (108 to 348 residues) expressed in human HepG2 cells assessed as receptor binding to PGC1alpha by lanthascreenTR-FRET coactivator assay
Measurement type: EC50 (nM)
Numbers only, in nM.

In [3]: df
Out[3]:
                         given_smiles  unit_spec  number
0     COc1cccc(-c2nc(OC)c3ccccc3n2)c1         nM    2070
1  COc1cccc(-c2nc3ccccc3c(=S)[nH]2)c1         nM     690

Now for another entry.
## Task Please look up its EC50: COc1cccc(-c2nc(SC)c3ccccc3n2)c1
## Result 5120

----------
Tested on: Cytochrome P450 3A4 (Homo sapiens)
Sequence (P08684 whole entry): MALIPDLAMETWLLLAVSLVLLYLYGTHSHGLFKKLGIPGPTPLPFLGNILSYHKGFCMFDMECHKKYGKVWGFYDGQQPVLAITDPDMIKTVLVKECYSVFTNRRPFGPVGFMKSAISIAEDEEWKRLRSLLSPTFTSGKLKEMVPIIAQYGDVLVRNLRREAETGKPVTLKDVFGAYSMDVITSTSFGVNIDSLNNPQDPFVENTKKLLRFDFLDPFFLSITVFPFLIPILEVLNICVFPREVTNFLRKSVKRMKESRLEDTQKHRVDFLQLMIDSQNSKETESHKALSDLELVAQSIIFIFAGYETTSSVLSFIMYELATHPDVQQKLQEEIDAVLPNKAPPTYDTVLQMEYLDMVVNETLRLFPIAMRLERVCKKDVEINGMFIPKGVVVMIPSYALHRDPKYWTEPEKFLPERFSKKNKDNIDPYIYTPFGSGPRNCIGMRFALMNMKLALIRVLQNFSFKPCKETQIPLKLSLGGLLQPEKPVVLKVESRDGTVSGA
Protocol details: Inhibition of recombinant human CYP3A4 by P450-Glo luminescence assay
Type: ADME
Experimental context: read-out: IC50
Exercise: for every item that follows, state its recorded pIC50.
Numbers only, as −log10 of the molar value.

>>> df
                      given_smiles                           tested_on  number
0  COc1cccc(-c2nc(SC)c3ccccc3n2)c1  Cytochrome P450 3A4 (Homo sapiens)    4.64

Now for another entry.
## Task Please look up its pIC50: COc1cccc(-c2nc(OC)c3ccccc3n2)c1
## Result 4.89
